meta.source: PubChem BioAssay (NCI)

System: OVCAR-4 ovarian
method description: NCI tumour cell line growth inhibition, 48 h
I'd appreciate it if you could supply TGI values for the items below.

Recorded results for 3 compounds are shown here.
[[record]]
compound = "C#CCOC(=O)C(N)CSSCC(N)C(=O)O (stereo not given)"
value_kind = "TGI"
value_measured = "> 100 µM"

[[record]]
compound = "Oc1cc(O)c2c(=S)cc(-c3ccc(Cl)cc3)oc2c1"
value_kind = "TGI"
value_measured = "> 31.8 µM"

[[record]]
compound = "CC12CC[C@H](O)C(C)(C)[C@H]1CC[C@](C)(O)C2COc1ccc2ccc(=O)oc2c1 (stereo not given in full)"
value_kind = "TGI"
value_measured = "> 100 µM"


For each of the items listed, what is its TGI?
1. O=C(O)C1c2ccccc2C(C(=O)O)c2ccccc21 (stereo not given)
2. CC[C@@H](C(=O)[C@@H](C)[C@@H](O)[C@H](C)CCc1ccc(C)c(O)c1C(=O)O)[C@H]1O[C@](CC)([C@H]2CC[C@](O)(CC)[C@H](C)O2)C[C@@H]1C
3. CC1(C)C[C@H]2C=C(C=O)[C@]34C[C@]3(C(=O)OC4O)[C@H]2C1 (stereo not given in full)
4. CC1=C[C@]2(CC(C)C3C(CC4(C)C5CCC6C(C)(C)C(=O)CC[C@@]67C[C@@]57CC[C@]34C)O2)OC1=O (stereo not given in full)
5. COc1cc(C(C)c2cc3c(cc2OCCCCOc2cc4c(cc2C(C)c2cc(OC)c(OC)c(OC)c2)OCO4)OCO3)cc(OC)c1OC (stereo not given)
6. CCCCN(CCCC)CCCN=c1nc2c(c(N)n1-c1ccccc1)c(=S)n(-c1ccccc1)c(=S)n2-c1ccccc1

Result:
["> 100 µM", "19.2 µM", "7.86 µM", "57.5 µM", "> 100 µM", "2.46 µM"]

---

System: SK-MEL-5 melanoma
method description: NCI tumour cell line growth inhibition, 48 h; in the data active = GI50 below about 0.43 µM; inactive = the rest
The reply should name one outcome from active, inactive

[[record]]
compound = "CCOC(=O)c1cc(C(=O)c2cc(OC)cc(OC)c2)n2ncc3ccccc3c12"
assigned_label = "inactive"

[[record]]
compound = "CCCCN(CCCC)CCCN=c1nc2c(c(N)n1-c1ccccc1)c(=S)n(-c1ccccc1)c(=S)n2-c1ccccc1"
assigned_label = "inactive"

[[record]]
compound = "COc1cc2c3c(n(CCN(C)C)c(=O)c2cc1OC)-c1cc2c(cc1C3=O)OCO2"
assigned_label = "inactive"

[[record]]
compound = "CCOc1ccc(/C=C/[N+](=O)[O-])cc1"
assigned_label = "inactive"

[[record]]
compound = "COc1cccc(C2C3=C(COC3=O)N(CCO)c3cc4c(cc32)OCCO4)c1 (stereo unspecified)"
assigned_label = "active"

[[record]]
compound = "CC[O-].Cc1ccc2cccc([O-])c2n1.Cc1ccc2cccc([O-])c2n1.Cc1ccc2cccc([O-])c2n1.[Ti+4]"
assigned_label = "inactive"

[[record]]
compound = "Cc1nc(/N=C(\\N)NC(=O)Nc2ccccc2Cl)sc1C"
assigned_label = "inactive"

[[record]]
compound = "COC(=O)[C@H](CC(C)C)NC(=O)NC(=O)NC(=O)CI"
assigned_label = "inactive"


Q: In this assay, the call recorded for CC(=O)OCC1OC(OC2=C(CC=C(Cl)Cl)C(=O)c3ccccc3C2=O)C(OC(C)=O)C(OC(C)=O)C1OC(C)=O (stereo unspecified) was what?
Result: inactive

Q: In this assay, the call recorded for COc1ccc(C2=C(c3cc(OC)c(OC)c(OC)c3)C(=O)CC2)cc1 was what?
Result: active

Q: In this assay, the call recorded for CC(=O)OC[C@]12CC[C@@H]([C@@H](C)C(N)=O)[C@@H]1[C@H]1CC[C@@H]3[C@@]4(C)CC[C@H](OC(C)=O)C(C)(C)[C@@H]4CC[C@@]3(C)[C@]1(C)CC2 was what?
Result: inactive

Q: In this assay, the call recorded for COc1cccc(C2NC(=S)NC(C)=C2C(=O)Nc2ccc(F)c(Cl)c2)c1 (stereo unspecified) was what?
Result: inactive

Q: In this assay, the call recorded for Oc1cc(O)c2c(=S)cc(-c3ccc(Cl)cc3)oc2c1 was what?
Result: inactive

Q: In this assay, the call recorded for C=C1CCC2C3(C)COC(c4ccc(SC)cc4)OC3CCC2(C)C1C/C=C1/C(=O)OCC1O (stereo unspecified) was what?
Result: inactive

Q: In this assay, the call recorded for COc1c(CNC(=O)CCl)cc2[nH]c(C)cc2c1CNC(=O)CCl was what?
Result: inactive

---

Tested on: OVCAR-8 ovarian
method description: NCI tumour cell line growth inhibition, 48 h
I'd appreciate it if you could supply TGI values for the items below.

Recorded results for 3 molecules are shown here.
[[record]]
molecule = "CC1=C(c2cc(C(=O)Nc3ccc(Cl)c(Cl)c3)nc(N)n2)Sc2ccccc2N1"
value_kind = "TGI"
value_measured = "> 100 µM"

[[record]]
molecule = "CCn1c(=O)ccc2ccc(N(CCO)CCO)nc21"
value_kind = "TGI"
value_measured = "> 100 µM"

[[record]]
molecule = "O=C(c1cccs1)c1c(C(F)(F)F)n([O-])c2ccc(F)cc2[n+]1=O"
value_kind = "TGI"
value_measured = "1.34 µM"


For each of the items listed, what is its TGI?
1. CC(C)(C)[Si](C)(C)O/N=C\c1ccc(O[Si](C)(C)C(C)(C)C)cc1
2. O=C1CN2C(Cl)(Cl)C2(c2ccccc2)c2cc(Cl)ccc2N1CC(F)(F)F (stereo not given)

Result:
1. > 100 µM
2. > 100 µM

---

Test system: MOLT-4 leukemia
method description: NCI tumour cell line growth inhibition, 48 h; in the data active = GI50 below about 0.43 µM; inactive = the rest
The reply should name one outcome from TRUE for active, FALSE for inactive

Past entries and their recorded results:
[[record]]
compound = "N#Cc1c(-c2ccccc2)cc(-c2ccccc2)n(CCCCC(=O)NO)c1=O"
assayed_system = "MOLT-4 leukemia"
assigned_label = "FALSE"

[[record]]
compound = "COc1ccc(-c2nn(-c3cccc(NC(=O)Nc4cc(C(F)(F)F)cc(C(F)(F)F)c4)c3)cc2-c2ccncc2)cc1Cl"
assayed_system = "MOLT-4 leukemia"
assigned_label = "FALSE"

[[record]]
compound = "C=C1C(=O)O[C@@H]2C[C@@H]1CC[C@@]1(C)O[C@@H]1CC[C@@]1(C)O[C@@H]1CC[C@@]2(C)O"
assayed_system = "MOLT-4 leukemia"
assigned_label = "FALSE"

[[record]]
compound = "COc1cc2c3c(n(CCN(C)C)c(=O)c2cc1OC)-c1cc2c(cc1C3=O)OCO2"
assayed_system = "MOLT-4 leukemia"
assigned_label = "TRUE"

[[record]]
compound = "N#CN1CCC[C@H]1C(=O)N1CCc2c(-c3[nH]nc4ncccc34)cccc21"
assayed_system = "MOLT-4 leukemia"
assigned_label = "TRUE"

[[record]]
compound = "C=C(C)[C@@H]1CCC2=C[C@@H](OC2=O)[C@@H](C(=C)C)C(=O)/C=C(/C)C(=O)C1"
assayed_system = "MOLT-4 leukemia"
assigned_label = "FALSE"

[[record]]
compound = "COc1ccc(C2=C(c3cc(OC)c(OC)c(OC)c3)C(=O)CC2)cc1"
assayed_system = "MOLT-4 leukemia"
assigned_label = "TRUE"

[[record]]
compound = "CC(=O)OCC1OC(OC2=C(CC=C(Cl)Cl)C(=O)c3ccccc3C2=O)C(OC(C)=O)C(OC(C)=O)C1OC(C)=O (centres undefined)"
assayed_system = "MOLT-4 leukemia"
assigned_label = "FALSE"

[[record]]
compound = "COc1cccc(C2C3=C(COC3=O)N(CCO)c3cc4c(cc32)OCCO4)c1 (centres undefined)"
assayed_system = "MOLT-4 leukemia"
assigned_label = "TRUE"

[[record]]
compound = "COc1cc([C@@H]2c3cc4c(cc3[C@@H](O[C@@H]3O[C@@H]5CO[C@@H](c6cccs6)O[C@H]5[C@H](O)[C@H]3O)[C@H]3COC(=O)[C@H]23)OCO4)cc(OC)c1O"
assayed_system = "MOLT-4 leukemia"
assigned_label = "TRUE"


Q: In this assay, the call recorded for CCOc1ccc(/C=C/[N+](=O)[O-])cc1 was what?
Result: FALSE

Q: In this assay, the call recorded for CC[C@@H](C(=O)[C@@H](C)[C@@H](O)[C@H](C)[C@@H]1O[C@@H]([C@@H](CC)C(=O)O)CC[C@@H]1C)[C@H]1OC2(C=C[C@@H](O)[C@]3(CC[C@@](C)([C@H]4CC[C@](O)(CC)[C@H](C)O4)O3)O2)[C@H](C)C[C@@H]1C (some centres undefined) was what?
Result: FALSE

Q: In this assay, the call recorded for C/C(=C\CCc1ccoc1)CC/C=C(\C)CCCN1CCC(CO)CC1 was what?
Result: FALSE

Q: In this assay, the call recorded for CC1=C(/C=C/C(C)=C/C=C/C(C)=C/C(=O)Nc2ccc(O)cc2)C(C)(C)CCC1 was what?
Result: TRUE
